- System: SEM cells
- RUN DESCRIPTION: AUC of viability dose-response curve (% viability x log10 dose units); higher = less sensitive
- STATED CONDITIONS: RPMI 5 mM glucose + 10% FBS; 48 h
PROPERTY MEASURED: AUC of viability dose-response curve

Give the reported value of AUC of viability dose-response curve for this record: `Cc1ccc(C(=O)Nc2ccc([S+](=O)([O-])O)c3cc([S+](=O)([O-])O)cc([S+](=O)([O-])O)c23)cc1NC(=O)c1cccc(NC(=O)Nc2cccc(C(=O)Nc3cc(C(=O)Nc4ccc([S+](=O)([O-])O)c5cc([S+](=O)([O-])O)cc([S+](=O)([O-])O)c45)ccc3C)c2)c1`
393

Give the reported value of AUC of viability dose-response curve for this record: `CN(CC(=O)N(Cc1ccc(C2CCCCC2)cc1)c1ccc(C(=O)O)c(O)c1)[S+](=O)([O-])c1c(F)c(F)c(F)c(F)c1F`
404
